Target: Caspase-1 (Homo sapiens, UniProt P29466)
Sequence (P29466 120-297 limits assumed): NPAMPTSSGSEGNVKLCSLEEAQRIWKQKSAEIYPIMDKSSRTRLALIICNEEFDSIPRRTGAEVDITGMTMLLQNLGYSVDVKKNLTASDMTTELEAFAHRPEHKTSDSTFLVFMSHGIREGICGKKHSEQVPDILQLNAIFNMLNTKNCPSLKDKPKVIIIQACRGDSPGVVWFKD
Sequence (P29466 317-404 limits assumed): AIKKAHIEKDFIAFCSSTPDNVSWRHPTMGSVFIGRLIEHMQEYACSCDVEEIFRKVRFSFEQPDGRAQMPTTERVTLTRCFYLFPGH
Experiment: Caspase-1 enzyme inhibition (Ki)
Format: biochemical
Conditions: substrate Suc-YVAD-pNA 80 μM, 37° C., pH 7.5
Where a SMILES comes first, the peptide text is derived from it. [ ]: non-standard residue; d: D form. 4Abz = Nc1ccc(C(=O)O)cc1
# Ki per record follows

Look over these answered cases.
- Compound: "C[C@H](NC(=O)c1ccc(N)c(Cl)c1)C(=O)N1CCCC[C@H]1C(=O)N[C@H](C=O)CC(=O)O [Example 25d]"
  Test Result: "< 10 nM"
- Compound: "Cc1cc(C(=O)N[C@H](C(=O)N2CC[C@H](C)[C@H]2C(=O)N[C@H](C=O)CC(=O)O)C(C)C)cc(C)c1O [Example 26b]"
  Test Result: "< 10 nM"
- Compound: "C[C@H](NC(=O)c1ccc(F)c(F)c1)C(=O)N1CCC[C@H]1C(=O)N[C@H](C=O)CC(=O)O"
  Test Result: "10 to 1000 nM"
- Compound: "CC(C)[C@H](NC(=O)c1nccc2ccccc12)C(=O)N1CSC(C)(C)[C@H]1C(=O)N[C@H](C=O)CC(=O)O [Example 28c]"
  Test Result: "< 10 nM"
- Compound: "CC(=O)Nc1ccc(C(=O)N[C@@H](C)C(=O)N2CCC[C@H]2C(=O)N[C@H](C=O)CC(=O)O)cc1 [Example 7e] (Ac-[4Abz]APD-aldehyde)"
  Test Result: "10 to 1000 nM"
- Compound: "COc1cc(C(=O)N[C@@H](C)C(=O)N2CCC[C@H]2C(=O)N[C@H](C=O)CC(=O)O)cc(OC)c1OC"
  Test Result: "10 to 1000 nM"

Shifting focus to the compound that follows.
// query Please give the measured Ki for this compound: C[C@H](NC(=O)Oc1ccccc1)C(=O)N1CCC[C@H]1C(=O)N[C@H](C=O)CC(=O)O
// result 10 to 1000 nM

* * *

List of Ki values.
Biological target: UniProtKB P29466
Assay: Caspase-1 enzyme inhibition (Ki)
Assay type: biochemical
Settings: substrate Suc-YVAD-pNA 80 μM, 37° C., pH 7.5

Example cases with answers are listed next.
- Compound: "CC(Nc1ccccc1)C(=O)N1CCCC1C(=O)NC(C=O)CC(=O)O (centres unmarked)"
  Ki: "> 1000 nM"
- Compound: "COc1ccc(C(=O)N[C@H](C(=O)N2C[C@H](NC(=O)NC(C)C)C[C@H]2C(=O)N[C@H](C=O)CC(=O)O)C(C)C)cc1"
  Ki: "< 10 nM"
- Compound: "CC[C@H](NC(=O)c1nccc2ccccc12)C(=O)N1CCC[C@H]1C(=O)N[C@H](C=O)CC(=O)O [Example 20e]"
  Ki: "< 10 nM"
- Compound: "COc1c(Cl)cc(C(=O)N[C@H](C(=O)N2CCNC[C@H]2C(=O)N[C@H](C=O)CC(=O)O)C(C)C)cc1Cl [Example 15d]"
  Ki: "10 to 1000 nM"
- Compound: "CC(C)[C@H](NC(=O)c1cnc2ccccc2n1)C(=O)N1CCC[C@H]1C(=O)N[C@H](C=O)CC(=O)O"
  Ki: "10 to 1000 nM"
- Compound: "Cc1ccc(Cl)cc1C(=O)N[C@@H](C)C(=O)N1CCC[C@H]1C(=O)N[C@H](C=O)CC(=O)O"
  Ki: "< 10 nM"
- Compound: "CC(C)[C@H](NC(=O)c1nccc2ccccc12)C(=O)N1CCC[C@H]1C(=O)N[C@H](C=O)CC(=O)O"
  Ki: "< 10 nM"
- Compound: "COc1ccc(C(=O)N[C@H](C(=O)N2C3CCCCC3C[C@H]2C(=O)N[C@H](C=O)CC(=O)O)C(C)C)cc1 (some centres unmarked) [Example 26d]"
  Ki: "< 10 nM"
- Compound: "COc1cc(CC(=O)N[C@H](C(=O)N2CCC[C@H]2C(=O)N[C@H](C=O)CC(=O)O)C(C)C)ccc1OCc1ccccc1"
  Ki: "10 to 1000 nM"
- Compound: "CC(=O)N[C@@H]1C[C@@H](C(=O)N[C@H](C=O)CC(=O)O)N(C(=O)[C@@H](NC(=O)c2nccc3ccccc23)C(C)C)C1"
  Ki: "< 10 nM"

Could you now look at the following compound, please?
// query Requested field: Ki. Item: CC(C)(C)[C@H](NC(=O)c1nccc2ccccc12)C(=O)N1CCCC[C@H]1C(=O)N[C@H](C=O)CC(=O)O [Example 25c]
// result < 10 nM

Numbers sourced from patent US20030232986A1.
